test system: TK-10 renal; assay: NCI tumour cell line growth inhibition, 48 h
For each record, write down the corresponding TGI.

Can you share its TGI? I mean this compound: `C/C(=N\NC(=S)N(C)CCN(C)C(=S)N/N=C(\C)c1ccccn1)c1ccccn1`
7.75 µM

Can you share its TGI? I mean this compound: `C=CCNS(=O)(=O)c1ncnc2nc[nH]c12`
> 100 µM

Can you share its TGI? I mean this compound: `CN(C)CCCNC(=O)c1cncnc1Nc1ccc(OCc2cccc(F)c2)c(Cl)c1`
3.48 µM

Can you share its TGI? I mean this compound: COc1cc(O)c2c(c1)C(=O)c1cc3c(c(O)c1C2=O)C(OC1OC(C)C(O)C(O)C1OC)C(OC)C(C)(O)C3=O (centres undefined)
61.4 µM

Can you share its TGI? I mean this compound: `CCCCCCc1nc2nc(Cl)c(Cl)nc2[nH]1`
> 100 µM

Can you share its TGI? I mean this compound: `Cc1ccc(NC2=N/C(=C/c3ccccc3)C(Cl)=N2)cc1`
> 100 µM

Can you share its TGI? I mean this compound: CC(=O)O[C@H]1CCC2[C@@H]3CCC4Cc5nc6c(nc5C[C@]4(C)C3CC[C@@]21C)CC1CC[C@@H]2C(CC[C@@]3(C)C2CC[C@@H]3C(C)CCCC(C)C)[C@@]1(C)C6 (some centres undefined)
> 100 µM

Can you share its TGI? I mean this compound: `CCOP(=O)(OCC)[C@H]1OC(C)(C)O[C@@H]1CO`
> 100 µM

Can you share its TGI? I mean this compound: `COc1cc2c(cc1OC)C(=O)Cc1ccc(OC)c(OC)c1CN(C)CC2`
> 100 µM
